Data origin, for the record: paper PMC9482650

Biological target: T1, NHERF3_1, Q5T2W1
T1 sequence (Q5T2W1 4-100, limits assumed, looked up): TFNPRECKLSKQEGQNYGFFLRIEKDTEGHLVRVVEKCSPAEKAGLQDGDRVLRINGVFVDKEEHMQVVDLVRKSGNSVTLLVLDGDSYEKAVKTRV
Test: holdup assay
Parameters: key: below the threshold = too weak to quantify, mostly under pKd 3.1 to 4
Details: plain residues with an end cap or a label only (N-terminal biotin on a linker: ado-ado)
recorded.metric: pKd
Give only the figure.

Ask: Data request, read-out pKd, for QMNQTLPVQV [EPHB3, P54753]
Reply: 3.48

Ask: And the next one, TACCHSETVV [TGFA, P01135] ?
Reply: 3.64

Ask: Another binder to look at: SAAKVLTSMC [GHRHR, Q02643]
Reply: 3.94

Ask: Another binder to look at: PRISRSQSEL [CCDC134, Q9H6E4]
Reply: 4.42

Ask: Next: RRRESYSTTV [EVI5, O60447]
Reply: 4.31

Ask: Now try PRAEAEDSFL [PDGFRB, P09619] .
Reply: 4.76
